# Tgt: HRgpA-6H (Porphyromonas gingivalis) (UniProt P28784)
# Assay Summary: ELISA, FASEBA Fab on coated HRgpA-6H
Measure Name: OD450nm
# answer = number (no unit)

Take a look at these entries with their results.
[[record]]
binder = "KB001 mouse Fab VL S30E (Fab, V domains shown) VH: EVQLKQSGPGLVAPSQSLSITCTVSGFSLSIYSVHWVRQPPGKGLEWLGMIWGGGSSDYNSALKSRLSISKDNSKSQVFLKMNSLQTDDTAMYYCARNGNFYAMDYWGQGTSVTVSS VL: QIVLTQSPAIMSASLGERVTMTCTASSSVESSFLHWYQQKPGSSPQLWIYSTSNLASGVPARFSGSGSGTSYSLTISSMEAEDAATYYCHQYHHSPYIYTFGGGTKLEIK"
measure_name = "OD450nm"
result_value = 0.813

[[record]]
binder = "KB001 mouse Fab VL L55T (Fab, V domains shown) VH: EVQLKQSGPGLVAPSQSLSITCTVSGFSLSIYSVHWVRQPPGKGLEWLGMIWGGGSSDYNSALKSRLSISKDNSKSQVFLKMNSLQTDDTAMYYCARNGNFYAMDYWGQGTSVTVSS VL: QIVLTQSPAIMSASLGERVTMTCTASSSVSSSFLHWYQQKPGSSPQLWIYSTSNTASGVPARFSGSGSGTSYSLTISSMEAEDAATYYCHQYHHSPYIYTFGGGTKLEIK"
measure_name = "OD450nm"
result_value = 0.727


Query block: Entry KB001 mouse Fab VL T24H (Fab, V domains shown) VH: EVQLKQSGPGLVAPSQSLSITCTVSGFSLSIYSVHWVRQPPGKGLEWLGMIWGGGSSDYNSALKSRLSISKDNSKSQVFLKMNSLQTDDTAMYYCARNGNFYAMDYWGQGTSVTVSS VL: QIVLTQSPAIMSASLGERVTMTCHASSSVSSSFLHWYQQKPGSSPQLWIYSTSNLASGVPARFSGSGSGTSYSLTISSMEAEDAATYYCHQYHHSPYIYTFGGGTKLEIK : reported OD450nm = ?
Result block: 0.795
